- measured-target: SARS-CoV-2 3CLpro (Severe acute respiratory syndrome coronavirus 2)
- assay-summary: biochemical
- Assay type: biochemical
- applied-conditions: 4 h, read-out: mean
Structures can show the parent of a compound that is named as a salt.
# maps each entry to its inhibition at 5 µM
Answer format: numeric, % implied, no suffix.

Examples from the recorded data:
1) CC(C)[C@@]1(NC(=O)[C@@H]2C=C3c4cccc5[nH]cc(c45)C[C@H]3N(C)C2)O[C@@]2(O)[C@@H]3CCCN3C(=O)[C@H](Cc3ccccc3)N2C1=O; 3.45
2) C[C@@H]1O[C@@H](O[C@H]2C[C@@H](O)[C@]3(CO)[C@H]4[C@H](O)C[C@]5(C)[C@@H](C6=CC(=O)OC6)CC[C@]5(O)[C@@H]4CC[C@]3(O)C2)[C@H](O)[C@H](O)[C@H]1O; 2.83

Consider the compound shown here: NCCc1c[nH]cn1 [Histamine dihydrochloride] What is its recorded inhibition at 5 µM?
1

----------
A collection of compounds and their measured inhibition at 5 µM
- measured-target: SARS-CoV-2 3CLpro (Severe acute respiratory syndrome coronavirus 2, UniProt P0DTD1)
- assay-summary: biochemical
- Assay type: biochemical
- applied-conditions: 4 h, sheet LOPAC_screen_w_protease; LOPAC1280 at 5 µM; mean of two replicates; read-out: mean
Counter-ions that a name gives are not always drawn.
// return numeric value only (unit: %, not printed)

Consider the following illustrative entries.
1. Cc1nc2n(c(=O)c1CCN1CCC(c3noc4cc(F)ccc34)CC1)CCCC2; 0.962
2. COc1cc2ncnc(Nc3cccc(Cl)c3)c2cc1OC; 1.16
3. Cc1cc(C(C)(C)C)cc(C)c1CC1=NCCN1 [Xylometazoline hydrochloride]; 1.12
4. C#CCOC(=O)C1=CCCN(C)C1 [Arecaidine propargyl ester hydrobromide]; 1.23
5. NCCCCN=C(N)N [Agmatine sulfate]; 1.26
6. CN(C)CC[C@@H](c1ccc(Br)cc1)c1ccccn1 [(+)-Brompheniramine maleate]; 1.03
7. O=C1NC(=O)C(c2ccccc2)(c2ccccc2)N1; 1.1
8. Cc1nccc2c1[nH]c1ccccc12; 1.1
9. CN(C)CC/C=C1/c2ccccc2Sc2ccc(Cl)cc21 [Chlorprothixene hydrochloride]; 1.25
10. NS(=O)(=O)c1cc2c(cc1Cl)N=CNS2(=O)=O [Chlorothiazide]; 0.892

What is its inhibition at 5 µM for SARS-CoV-2 3CLpro (Severe acute respiratory syndrome coronavirus 2, UniProt P0DTD1)? Entry: CN(C)CCCO[C@@H]1[C@H]2OC(C)(C)O[C@H]2O[C@@H]1[C@H](O)CO [Amiprilose hydrochloride]
1.08

Recall the recorded inhibition at 5 µM for C[C@]12CCC(=O)C=C1CC[C@@H]1[C@@H]2CC[C@@]2(C)[C@H]1CC[C@]2(O)C(=O)CO [Cortexolone] with SARS-CoV-2 3CLpro (Severe acute respiratory syndrome coronavirus 2, UniProt P0DTD1) and state it.
1.01

// map CCN(c1nc(N)c(C(=O)NC(=N)N)nc1Cl)C(C)C [5-(N-Ethyl-N-isopropyl)amiloride] to recorded inhibition at 5 µM (system: SARS-CoV-2 3CLpro (Severe acute respiratory syndrome coronavirus 2, UniProt P0DTD1))
1.01

Enter reported inhibition at 5 µM observed with SARS-CoV-2 3CLpro (Severe acute respiratory syndrome coronavirus 2, UniProt P0DTD1) for CCCn1cnc2c1c(=O)n(CCCCC(C)=O)c(=O)n2C
1.26

----------
molecules and their reported EC50
- measured-target: SARS-CoV-2 3CLpro (Severe acute respiratory syndrome coronavirus 2, UniProt P0DTD1)
- assay-summary: biochemical
- Assay type: biochemical
- applied-conditions: without Triton X-100; mean ± SD of triplicate; 4 h, 30 °C; read-out: B) EC50 without Triton X-100
The figure you give is taken to be in nM; do not add the unit.

1) Br.Oc1ccc(C2CNCc3sccc32)cc1O (centres unmarked) [SKF 89626, reference compound]; 2830
2) Oc1cc(O)cc(/C=C/c2ccc(O)c(O)c2)c1 [Piceatannol, reference compound]; 455
3) Oc1ccccc1O [Pyrocatechol, reference compound]; 4090

// returns reported EC50 for input CC(C)(C)c1ccc(S(=O)(=O)/C=C/C#N)cc1 [Bay 11-7085, reference compound]
807

----------
Recorded inhibition at 5 µM values for a group of compounds are listed next.
- measured-target: SARS-CoV-2 3CLpro (Severe acute respiratory syndrome coronavirus 2)
- assay-summary: biochemical
- Assay type: biochemical
- applied-conditions: 4 h, sheet LOPAC_screen_w_protease; primary screen of LOPAC1280 at 5 µM with protease; mean of the two replicates; read-out: mean
Structures can show the parent of a compound that is named as a salt.
// units = %; emit number, no label

Example results:
1. CC(C)N(CCC(C(N)=O)(c1ccccc1)c1ccccn1)C(C)C (stereo not drawn) [Disopyramide]; 3.48
2. CC(CN1c2ccccc2Sc2ccccc21)N(C)C (stereo not drawn) [Promethazine hydrochloride]; 3.55

Would you kindly share the measured inhibition at 5 µM for CN1C[C@H](CNC(=O)OCc2ccccc2)C[C@@H]2c3cccc4c3c(cn4C)C[C@H]21 ?
4.08

Return reported inhibition at 5 µM; argument: CNC(=O)[C@H]1O[C@@H](n2cnc3c(NCc4cccc(I)c4)nc(Cl)nc32)[C@H](O)[C@@H]1O
3.22

----------
- measured-target: SARS-CoV-2 3CLpro (Severe acute respiratory syndrome coronavirus 2)
- assay-summary: biochemical
- Format: biochemical
- applied-conditions: 4 h, sheet LOPAC_screen_w_protease; primary screen with protease, replicate 1; read-out: Replicate_1
Counter-ions that a name gives are not always drawn.
inhibition at 5 µM values by entry
Just the number in %, nothing appended.

Examples with their reported inhibition at 5 µM follow.
1. NC12CC3CC(CC(C3)C1)C2 [Amantadine hydrochloride]; 1.91
2. CN(C(=O)CCCOc1ccc2[nH]c(=O)ccc2c1)C1CCCCC1 [Cilostamide]; 1.11
3. CO/N=C(\C(=O)N[C@@H]1C(=O)N2C(C(=O)O)=C(COC(C)=O)CS[C@H]12)c1csc(N)n1 [Cefotaxime sodium]; 1.54
4. CC(C)[C@H](CO)Nc1nc(Nc2cccc(Cl)c2)c2ncn(C(C)C)c2n1; 2.6
5. CN1CCN(C2=Nc3cc(Cl)ccc3Nc3ccccc32)CC1; 2.27
6. CN1C(C)(C)CCCC1(C)C [Pempidine tartrate]; 2.5
7. O=C(O)C1=CCCNC1 [Guvacine hydrochloride]; 4.35
8. N=c1ccn2c(n1)O[C@H]1[C@H](O)[C@@H](CO)O[C@H]12 [Ancitabine hydrochloride]; 2.42

Next compound, please.
Form field: reported inhibition at 5 µM of C#C[C@]1(O)CC[C@H]2[C@@H]3CCC4=Cc5oncc5C[C@]4(C)[C@H]3CC[C@@]21C
4.08

----------
- measured-target: SARS-CoV-2 3CLpro (Severe acute respiratory syndrome coronavirus 2, UniProt P0DTD1)
- assay-summary: biochemical
- Type: biochemical
- Design: unit not given here
- applied-conditions: sheet LOPAC_screen_w_protease; primary screen with protease, 5 µM; replicate 2
Let's look at some compounds and their measured Replicate_2.
Give a plain numeric answer without units written out.

Examples with answers:
1. C=C(C)[C@H]1CC=C(C(=O)O)CC1 [(-)-Perillic acid]; -2.738
2. CCCCCC(O)CCCC(=O)O.[Na] (centres unmarked) [5-hydroxydecanoic acid sodium]; -1.306
3. Cl.NCCCCC(=O)O [5-Aminovaleric acid hydrochloride]; -0.06046
4. CCCN(CCC)C1Cc2cc(OC)c(OC)cc2C1.O=C(O)/C=C\C(=O)O [U-99194A maleate]; 0.891

Kindly review the next compound as well.
Which Replicate_2 reading was recorded for the compound Nc1nc(Nc2ccccc2)nc2c1ncn2[C@@H]1O[C@H](CO)[C@@H](O)[C@H]1O [2-Phenylaminoadenosine] ?
-0.001377

----------
- measured-target: UniProtKB P0DTD1
- assay-summary: biochemical
- Format: biochemical
- applied-conditions: sheet LOPAC_screen_w_protease; primary screen at 5 µM; replicate 2
Recorded Replicate_2 (LOPAC screen with protease) values for a group of compounds are listed next.

Some solved entries appear below for comparison.
1. C[C@@H]1OC[C@H](C[N+](C)(C)C)O1.[I-] [(+)-cis-Dioxolane iodide]; 8.781
2. Nc1ncn([C@@H]2O[C@H](CO)[C@@H](O)[C@H]2O)c(=O)n1 [5-azacytidine]; 0.9518
3. C[C@@]12N[C@@H](Cc3ccccc31)c1ccccc12.O=C(O)/C=C\C(=O)O [(-)-MK-801 hydrogen maleate]; 7.306

// moving on: another record for Replicate_2 (LOPAC screen with protease)
// query Replicate_2 (LOPAC screen with protease) value for entry O=Nc1ccc2oc(=O)ccc2c1 [6-Nitroso-1,2-benzopyrone, reference compound]
89.7716

----------
- measured-target: SARS-CoV-2 3CLpro (Severe acute respiratory syndrome coronavirus 2, UniProt P0DTD1)
- assay-summary: biochemical
- Format: biochemical
- applied-conditions: 4 h, sheet LOPAC_screen_w_protease; primary screen with protease, replicate 1; read-out: Replicate_1
Where a name gives a salt, the structure may show the parent alone.
# maps each entry to its inhibition at 5 µM
Hi! Could you send only the number? It should be in %, unit omitted.

# example entries with known answers
1) Oc1ccc(-c2nc(-c3ccncc3)c(-c3ccc(F)cc3)[nH]2)cc1 [SB 202190]; 1.31
2) CC[N+](C)(C)c1cccc(O)c1 [Edrophonium chloride]; 5.19

What does the record list as inhibition at 5 µM for CC(C)(Oc1ccc(C2CC2(Cl)Cl)cc1)C(=O)O (stereo not shown) [Ciprofibrate] ?
2.2

Sample COc1ccc(CN(CCN(C)C)c2ccccn2)cc1 [Pyrilamine maleate] — what was its inhibition at 5 µM?
1.24
